tested on: K562; assay: NCI tumour cell line growth inhibition, 48 h
Calls of active or inactive are those of the source. No stated cut-off is given here; in the data, active = GI50 up to about 1.1 µM and inactive = higher.
Just give me one of these, please: Y for active, N for inactive

[
  {
    "compound": "CCN(CC)c1ncnc2c1ncn2CCNC(CO)(CO)CO",
    "cat": "N"
  }
]

Challenge: Recorded test call requested for COc1ccc(/C(Cl)=C(\C=O)c2ccc(Cl)c(Cl)c2)cc1OC
Response given: N

Challenge: Thanks! And Oc1cccc2ccc(Br)nc12 ?
Response given: N

Challenge: Thanks! And O=C1OC(c2ccccc2)=N/C1=C/NC(Cc1c[nH]cn1)C(=O)O (stereo not drawn) ?
Response given: N

Challenge: Thanks! And [O-][S+](Cc1ccccc1)c1nc2ccccc2nc1-c1cccs1 (stereo not drawn) ?
Response given: N

Challenge: Thanks! And CN(C)C(=O)OC1C(=O)N(C)c2ccc(Cl)cc2C2(c3ccccc3)N1C2(Cl)Cl (stereo not drawn) ?
Response given: N

* * *

test system: NCI-H23; assay: NCI tumour cell line growth inhibition, 48 h
Calls of active or inactive are those of the source. No stated cut-off is given here; in the data, active = GI50 up to about 1.1 µM and inactive = higher.
Just give me one of these, please: active, inactive

Reference set (8 entries):
[
  {
    "compound": "CC1(C)OP(=O)(O)C=C1Sc1ccc([N+](=O)[O-])cc1[N+](=O)[O-]",
    "cat": "inactive"
  },
  {
    "compound": "CC(C)CCCC(C)[C@H]1CCC2[C@@H]3CCC4Cc5nc6c(nc5C[C@]4(C)C3CC[C@@]21C)CC1CC[C@@H]2C(CC[C@@]3(C)C2CC[C@@H]3C(C)CCCC(C)C)[C@@]1(C)C6 (some centres undefined)",
    "cat": "inactive"
  },
  {
    "compound": "Nc1nc(N)c2nc(CNc3ccc(C(=O)NC(CCCNC(=O)c4ccccc4C(=O)O)C(=O)O)cc3)cnc2n1 (centres undefined)",
    "cat": "active"
  },
  {
    "compound": "O=c1c2ccccc2[se]n1-c1cccnc1",
    "cat": "inactive"
  },
  {
    "compound": "COc1cc2ccnc3c2c(c1OC)N(C)C=C3",
    "cat": "inactive"
  },
  {
    "compound": "CCOC(=O)N(CC)c1c(C(F)(F)F)cc(-c2ccccc2)[nH]c1=O",
    "cat": "inactive"
  },
  {
    "compound": "CC1C2(C)OC(=N)C(C#N)(C(c3cccc([N+](=O)[O-])c3)O2)C1(C#N)C#N (centres undefined)",
    "cat": "inactive"
  },
  {
    "compound": "O=C(CCCCCCCCCCc1ccccc1)C1=C(O)CCCC1=O",
    "cat": "inactive"
  }
]

Challenge: Recorded test call requested for O=C(CCc1cc(-c2ccco2)n(-c2ccc([N+](=O)[O-])cc2[N+](=O)[O-])n1)Nc1ccccc1
Response given: inactive

Challenge: Thanks! And O=c1oc2ccccc2c(O)c1C1c2c(c3ccccc3oc2=O)Oc2c1c(=O)oc1ccccc21 ?
Response given: inactive

Challenge: Thanks! And Cc1cc(=O)n(-c2cc3cccccc-3n2)[nH]1 ?
Response given: inactive

Challenge: Thanks! And COc1ccc(NC(=O)/C(CC2=Nc3ccc([N+](=O)[O-])cc3NC2O)=N\NC(=O)C[N+](C)(C)C)c(OC)c1 (centres undefined) ?
Response given: inactive

Challenge: Thanks! And CCOCCOC(=O)C1CCC(=O)N1CN(C(C)=O)c1cc(OC)ccc1OC (centres undefined) ?
Response given: inactive

Challenge: Thanks! And COc1cc(S(=O)(=O)Nc2ccc(-c3csc(N4C(=O)CSC4c4cccc(Oc5ccccc5)c4)n3)cc2)ccc1Cl (centres undefined) ?
Response given: inactive

Challenge: Thanks! And O=C(Nc1sccc1S(=O)(=O)c1ccccc1)c1cccnc1 ?
Response given: inactive

Challenge: Thanks! And O=C(CO)CC(=O)C(=O)Nc1cccc(C(F)(F)F)c1 ?
Response given: inactive

Challenge: Thanks! And CC(C)C(=O)NCC[C@@H](CNC(=O)OC(C)(C)C)NC(=O)OC(C)(C)C ?
Response given: inactive

Challenge: Thanks! And CN(C(=O)c1ccc(Cl)cc1)C(=S)N1CCN(c2ccccc2)CC1 ?
Response given: inactive

Challenge: Thanks! And CN(C)c1ccc(/C=C2\C[C@H]3[C@@H]4CCc5cc(O)ccc5[C@H]4CC[C@]3(C)C2=O)cc1 ?
Response given: inactive
